ASSAYED_SYSTEM: T1, 12 AA stub region peptide LVLDLSMQEALS (human)
T1 construct: free N-terminus; also called 12 AA Peptide
T1 peptide: LVLDLSMQEALS
ASSAY_PROTOCOL: SPR, mAb captured, peptide injected
RECORDED_METRIC: pKd
Hey, just a heads up that pKd is the negative log base 10 of the concentration in molar.

MSLNB591 (antibody, V domains shown, mAb; also called MSNB591) VH: QVQLQQSGPGLVKPSQTLSLTCGISGDSVSSSSVAWNWIRQSPSRGLEWLGRTYYRSKWYNDYAISVRSRVTINPDTSKNQFSLQLNSVTPEDTAVYYCSRGVVGALDYWGQGTLVTVSS VL: DIVMTQSPLSLTVTPGEPASISCRSSQSLLFTNGYNSLDWYLQKPGQSPQFLIYLVSNRASGVPDRFSGSGSGTDFTLKISRVEAEDVGVYYCMQALRTPYTFGQGTKVDIK: 8.69
MSLNB568 (antibody, V domains shown, mAb; also called MSLNB568.001; MSNB568) VH: QVQLQQSGPGLVKPSQTLSLTCGISGDSVSSSSVAWNWIRQSPSRGLEWLGRTYYRSKWYNDYAISVRSRVTINPDTSKNQFSLQLNSVTPEDTAVYYCSRGVVGALDYWGQGTLVTVSS VL: DIVMTQSPLSLTVTPGEPASISCRSSQSLLFTNGYNSLDWYLQKPGQSPQFLIYLVSNRASGVPDRFSGSGSGTDFTLKISRVEAEDVGVYYCMQALRTPYTFGQGTKVEIK: 8.63
MSLNB569 (antibody, V domains shown, mAb; also called MSLNB569.001; MSNB569) VH: QVQLQQSGPGLVKPSQTLSLTCAISGDSVSSTRAAWNWIRQSPSRGLEWLGRTYYRSKWYNDYTVSVKSRITINPDTSKNQFSLHLNSVTPEDSAVYFCARGNVGRVDFWGQGTLVTVSS VL: EIVMTQSPLSLPVTPGEPASISCRSSQSLLHSDGYNYLDWYLQKPGQSPQLLIYLGSNRASGVPDRFSGSGSDTDFTLKISRVEAEDVGVYYCMQGLRTPLTFGPGTKVDIK: 8.39
MSLNB570 (antibody, V domains shown, mAb; also called MSNB570) VH: QVQLQQSGPGLVKPSQTLSLTCAISGDSVSSTSVAWNWIRQSPSGGLEWLGRTYYRSKWYNDYALSVKSRMTINPDTASNQFSLQLNSVTPEDTAVYYCSRGIVGALDYWGQGTLVTVSS VL: DIVMTQTPLSLPVTPGGPASISCRSSQSLMYSNGYNHLDWYLQKPGQSPQFLIHLGSNRVSGVPDRFSGSGSGTDFTLKISRVEAEDVGVYYCMQALRTPYTFGQGTKVDIK: 8.10

Let us examine a further case.
// pKd value for MSNB71 (antibody, V domains shown, mAb from Ablexis mouse; also called MSNB71.004) VH: QVQLQQSGPGLVMSSQTLSLTCAISGDSVSSSSVAWNWIRQSPSRGLQWLGRTYFRSKWYYDYAVSVKSRITINPDTSKNQFSLQLNSVTPEDTAVYYCSRGIVGALDYWGQGTLVTVSS VL: DIVMTQSPLSLPVTPGEPASISCRSSQSLLFTNGYDSLDWYLQKPGQSPQLLIYLVSNRASGVPDRFSGSGSGTEFTLKISRVEADDVGVYFCMQGIRTPFTFGPGTKLEIK : 9.16
